tested_target: IRAK4 (Homo sapiens (Human), UniProt Q9NWZ3)
Sequence (Q9NWZ3 whole entry): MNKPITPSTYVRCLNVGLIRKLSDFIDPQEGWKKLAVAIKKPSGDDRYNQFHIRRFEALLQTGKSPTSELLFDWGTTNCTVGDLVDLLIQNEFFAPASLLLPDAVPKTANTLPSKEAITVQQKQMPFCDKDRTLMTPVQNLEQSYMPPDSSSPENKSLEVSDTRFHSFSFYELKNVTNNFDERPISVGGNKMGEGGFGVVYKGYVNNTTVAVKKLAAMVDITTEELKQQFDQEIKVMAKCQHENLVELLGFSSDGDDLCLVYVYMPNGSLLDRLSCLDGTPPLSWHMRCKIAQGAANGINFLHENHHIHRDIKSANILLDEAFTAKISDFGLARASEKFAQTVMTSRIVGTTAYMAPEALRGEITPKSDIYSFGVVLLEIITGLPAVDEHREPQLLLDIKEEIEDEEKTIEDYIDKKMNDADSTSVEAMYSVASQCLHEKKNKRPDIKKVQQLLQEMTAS
method_notes: IRAK4 degradation in human whole blood lymphocyte - flow cytometry
Assay type: cell-based
test_parameters: read-out: IRAK4 degradation in whole blood lymphocyte-Flow cytometry: Average external Abs IC50
property_name: DC50

Here is how some molecules turned out for DC50.
Cn1c(=O)n(C2CCC(=O)NC2=O)c2cccc(CCCN3CCO[C@@H](CNC[C@H]4CC[C@H](n5cc(NC(=O)c6coc(-c7ccnc(NCC8CC8)c7)n6)c(C(F)F)n5)CC4)C3)c21 (stereo partly drawn)
0.05 to 0.1 µM
CN(CCCOCCCc1cccc2c1n(C)c(=O)n2C1CCC(=O)NC1=O)C(=O)[C@H]1CC[C@H](n2cc(NC(=O)c3coc(-c4ccnc(NCC(F)(F)F)c4)n3)c(C(N)=O)n2)CC1 (stereo partly drawn) [I-29]
0.5 to 1 µM

Could you now look at the following molecule, please?
The reported DC50 of the molecule Cn1c(=O)n(C2CCC(=O)NC2=O)c2cccc(CCCOCCN3CCN(C[C@H]4CC[C@H](n5cc(NC(=O)c6coc(-c7ccnc(NCC8CC8)c7)n6)c(C(F)F)n5)CC4)CC3)c21 (stereo partly drawn) was 0.05 to 0.1 µM

* * *

tested_target: UniProt:Q9NWZ3
method_notes: IRAK4 degradation in human whole blood monocyte - flow cytometry
Type: cell-based
test_parameters: read-out: IRAK4 degradation in whole blood monocyte-Flow cytometry: Average external Abs IC50
property_name: DC50

CN(C[C@H]1CC[C@H](n2cc(NC(=O)c3coc(-c4ccnc(NCC5CC5)c4)n3)c(C(F)F)n2)CC1)C1CCN(Cc2cccc3c2n(C)c(=O)n3C2CCC(=O)NC2=O)CC1 (some centres unmarked)
50 to 100 nM
CN(CC1CCN(Cc2cccc3c2n(C)c(=O)n3C2CCC(=O)NC2=O)CC1)C[C@H]1CC[C@H](n2cc(NC(=O)c3coc(-c4ccnc(NCC5CC5)c4)n3)c(C(F)F)n2)CC1 (some centres unmarked)
50 to 100 nM
O=C1CCC(N2C[C@H](c3cccc(C#CCN4CCO[C@@H](CNC[C@H]5CC[C@H](n6cc(NC(=O)c7coc(-c8ccnc(NCC9CC9)c8)n7)c(C(F)F)n6)CC5)C4)c3)OC2=O)C(=O)N1 (some centres unmarked)
50 to 100 nM

Kindly consider the entry below.
Summary line: CN(CCCOCCCc1cccc2c1n(C)c(=O)n2C1CCC(=O)NC1=O)C(=O)[C@H]1CC[C@H](n2cc(NC(=O)c3coc(-c4ccnc(NCC(F)(F)F)c4)n3)c(C(N)=O)n2)CC1 (some centres unmarked) [I-29] , UniProt:Q9NWZ3, reported DC50 = 500 to 1000 nM

* * *

System: OCI-LY10
method_notes: CTG Cell Viability Assay - OCI-LY10
Type: cell-based, human
test_parameters: Homo sapiens, OCI-Ly10, 96 h, OCI-LY10, 4 days; read-out: CTG Cell Viability Assay - OCI-LY10: Average external-IC50
pIC50: −log10 of the molar value.
property_name: pIC50

Cn1c(=O)n(C2CCC(=O)NC2=O)c2cccc(CCCOCC3CCN(C[C@H]4CC[C@H](n5cc(NC(=O)c6cnn7ccc(N8CCOCC8)nc67)c(C(F)F)n5)CC4)CC3)c21 (stereo partly shown)
< 6.00
O=C1CCC(N2C(=O)c3cccc(CCCOC4CCN(C[C@H]5CC[C@H](n6cc(NC(=O)c7cnn8ccc(N9CCOCC9)nc78)c(C(F)F)n6)CC5)CC4)c3C2=O)C(=O)N1 (stereo partly shown)
< 6.00
CN(CCCOCCCc1cccc2c1n(C)c(=O)n2C1CCC(=O)NC1=O)C[C@H]1CC[C@H](n2cc(NC(=O)c3cnn4ccc(N5CCCCC5)nc34)c(C(F)F)n2)CC1 (stereo partly shown)
< 6.00

Noted for O=C1CCC(N2C(=O)c3cccc(NCCOC[C@H]4CC[C@H](n5cc(NC(=O)c6cnn7ccc(N8C[C@H]9C[C@@H]8CO9)nc67)c(C(F)F)n5)CC4)c3C2=O)C(=O)N1 (stereo partly shown) : its pIC50 reads 6.30 to 7.00

The measured pIC50 associated with O=C1CCC(N2C(=O)c3cccc(NCCc4ccc(CCNC[C@H]5CC[C@H](n6cc(NC(=O)c7cnn8ccc(N9C[C@H]%10C[C@@H]9CO%10)nc78)c(C(F)F)n6)CC5)cc4)c3C2=O)C(=O)N1 (stereo partly shown) reads > 7.30

Input CN(CCc1ccc(CNc2cccc3c2C(=O)N(C2CCC(=O)NC2=O)C3=O)cc1)C[C@H]1CC[C@H](n2cc(NC(=O)c3cnn4ccc(N5C[C@H]6C[C@@H]5CO6)nc34)c(C(F)F)n2)CC1 (stereo partly shown) . Output pIC50: > 7.30

The value of pIC50 measured for the molecule CN1C(=O)CCC(N2C(=O)c3cccc(NCC4CC5(CCN(C[C@H]6CC[C@H](n7cc(NC(=O)c8cnn9ccc(N%10C[C@H]%11C[C@@H]%10CO%11)nc89)c(C(F)F)n7)CC6)CC5)C4)c3C2=O)C1=O (stereo partly shown) turned out to be < 6.00

Entry CN1C(=O)C(C2CCC(=O)NC2=O)c2cccc(CCCOC3CCN(C[C@H]4CC[C@H](n5cc(NC(=O)c6cnn7ccc(N8CC9(COC9)C8)nc67)c(C(F)F)n5)CC4)CC3)c21 (stereo partly shown) ; pIC50 = < 6.00

// CN(CCN(C)CC1CCC(n2cc(NC(=O)c3cnn4ccc(N5C[C@H]6C[C@@H]5CO6)nc34)c(C(F)F)n2)CC1)Cc1ccc(COc2cccc3c2C(=O)N(C2CCC(=O)NC2=O)C3=O)cc1 (stereo partly shown) : pIC50 value = 6.00 to 6.30

Noted for CN(C[C@H]1CC[C@H](n2cc(NC(=O)c3cnn4ccc(N5CCOCC5)nc34)c(C(F)F)n2)CC1)C1CCN(Cc2cccc3c2n(C)c(=O)n3C2CCC(=O)NC2=O)CC1 (stereo partly shown) : its pIC50 reads < 6.00

* * *

Test system: OCI-LY10
method_notes: CTG Cell Viability Assay - OCI-LY10
Format: cell-based, human
test_parameters: OCI-LY10, 4 days; read-out: CTG Cell Viability Assay - OCI-LY10: Average external-IC50
Each item that follows carries a reported IC50.

Entry under test: CN1C(=O)C(C2CCC(=O)NC2=O)c2ccc(CN3CCC(N(C)C[C@H]4CC[C@H](n5cc(NC(=O)c6coc(-c7ccnc(NCC8CC8)c7)n6)c(C(F)F)n5)CC4)CC3)cc21 (some centres unmarked) . Its IC50 was > 1000 nM

Reported IC50 ( COc1cc(C(=O)NCCOCCOCCN(C)C[C@H]2CC[C@H](n3cc(NC(=O)c4coc(-c5ccnc(NCC6CC6)c5)n4)c(C(F)F)n3)CC2)ccc1NC(=O)[C@@H]1N[C@@H](CC(C)(C)C)[C@](C#N)(c2ccc(Cl)cc2F)[C@H]1c1cccc(Cl)c1F ) = > 1000 nM

* * *

Reported pIC50 is given for each of the following compounds.
System: OCI-LY10
method_notes: CTG Cell Viability Assay - OCI-LY10
Format: cell-based, human
test_parameters: Homo sapiens, OCI-Ly10, 96 h, OCI-LY10, 4 days; read-out: CTG Cell Viability Assay - OCI-LY10: Average external-IC50
pIC50: −log10 of the molar value.

Some entries whose results are on file:
Cn1c(=O)n(C2CCC(=O)NC2=O)c2cccc(CN3CCC4(CC3)CN(C[C@H]3CC[C@H](n5cc(NC(=O)c6coc(-c7ccnc(NCC8CC8)c7)n6)c(C(F)F)n5)CC3)C4)c21 (stereo partly drawn)
6.30 to 7.00
O=C1CCC(N2C(=O)c3cccc(NCCCOCCCN4CCN(c5ncc(-n6cc(NC(=O)c7cnn8ccc(N9CCOCC9)nc78)c(C(F)F)n6)cn5)CC4)c3C2=O)C(=O)N1 (stereo not drawn)
> 7.30

Next item in the queue.
The reported pIC50 of the compound Cn1c(=O)n(C2CCC(=O)NC2=O)c2cccc(CCCN3CC4(CCN(C(=O)[C@H]5CC[C@H](n6cc(NC(=O)c7cnn8cccnc78)c(N7CCOCC7)n6)CC5)CC4)C3)c21 (stereo partly drawn) was < 6.00

* * *

tested_target: UniProt:Q9NWZ3
method_notes: IRAK4 MSD degradation in OCI-LY10
Format: cell-based
test_parameters: OCI-LY10, 4 hrs, MSD; read-out: IRAK4 MSD degradation in OCI-LY10 at 4 hrs: Average external-Abs DC50
# DC50 listing for each entry below

Known DC50 results, listed for orientation:
CC[C@@H]1[C@H](F)C(=O)N[C@@H]1COc1ncc(C#C[C@H]2CC[C@H](CN(C)C3CCN(Cc4cccc5c4n(C)c(=O)n5C4CCC(=O)NC4=O)CC3)CC2)c2cc(C(N)=O)c(OC)cc12 (stereo partly shown)
10 to 100 nM
CN(CCCOCCCc1ccc2c(c1)oc(=O)n2C1CCC(=O)NC1=O)C[C@H]1CC[C@H](n2cc(NC(=O)c3coc(-c4ccnc(NCC5CC5)c4)n3)c(C(F)F)n2)CC1 (stereo partly shown)
< 10 nM
Cn1c(=O)n(C2CCC(=O)NC2=O)c2cccc(CCCN3CCOC4(CCN(C(=O)c5ccc(-n6cc(NC(=O)c7cnn8ccc(N9C[C@H]%10C[C@@H]9CO%10)nc78)c(C(F)F)n6)cc5)CC4)C3)c21 (stereo partly shown)
< 10 nM
CN(CCCOCCCc1cccc2c1n(C)c(=O)n2C1CCC(=O)NC1=O)C(=O)[C@H]1CC[C@H](n2cc(NC(=O)c3coc(-c4ccnc(NCC(F)(F)F)c4)n3)c(C(N)=O)n2)CC1 (stereo partly shown) [I-29]
< 10 nM
CN(C[C@@H]1CN(CCCc2ccc3c(c2)n(C)c(=O)n3C2CCC(=O)NC2=O)CCO1)C(=O)[C@H]1CC[C@H](n2cc(NC(=O)c3coc(-c4ccnc(NCC5CC5)c4)n3)c(C(F)F)n2)CC1 (stereo partly shown)
< 10 nM

The compound CN1C(=O)C(C2CCC(=O)NC2=O)c2cccc(CCCOC3CCN(C[C@H]4CC[C@H](n5cc(NC(=O)c6cnn7ccc(N8CC9(COC9)C8)nc67)c(C(F)F)n5)CC4)CC3)c21 (stereo partly shown) showed DC50 equal to < 10 nM

The compound listed as CN(CCCCc1cccc2c1n(C)c(=O)n2C1CCC(=O)NC1=O)C[C@H]1CC[C@H](n2cc(NC(=O)c3coc(-c4ccnc(NCC5CC5)c4)n3)c(C(F)F)n2)CC1 (stereo partly shown) shows DC50 equal to < 10 nM

# compound CC[C@@H]1[C@H](F)C(=O)N[C@@H]1COc1ncc(C#CC2CCN(CC3CCN(Cc4cccc5c4n(C)c(=O)n5C4CCC(=O)NC4=O)CC3)CC2)c2cc(C(N)=O)c(OC)cc12 (stereo partly shown) ; its DC50 = 10 to 100 nM

For CC[C@H]1C(COc2ncc(C#CC3CCC(CN(C)CCCOCCCc4cccc5c4n(C)c(=O)n5C4CCC(=O)NC4=O)CC3)c3cc(C(N)=O)c(OC)cc23)NC(=O)[C@H]1F (stereo partly shown) the compound record lists DC50 as 10 to 100 nM

compound CC(C)N(CCCOCCCc1cccc2c1n(C)c(=O)n2C1CCC(=O)NC1=O)C[C@H]1CC[C@H](n2cc(NC(=O)c3coc(-c4ccnc(NCC5CC5)c4)n3)c(C(F)F)n2)CC1 (stereo partly shown) , DC50 observed: 10 to 100 nM
